- Study system: recombinant human GST-Syk (Homo sapiens, UniProt P43405)
- Construct: purchased Carna Biosciences 08-176
- Experimental details: Homogeneous Time-Resolved Fluorescence (HTRF) assay for the recombinant human Syk enzyme
- Format: biochemical
- Protocol conditions: recombinant human GST-Syk 5 pM, ATP 25 μM, 10-dose titration 10 μM to 0.508 nM; read-out: rhSYK Activity IC50
Readout type: IC50

molecule=Cc1cc(Nc2nccc(C(F)(F)F)n2)cc(-c2cn(C[C@H](O)CC#N)nn2)c1 result="20 nM"
molecule=Cc1cc(Nc2cc(C(F)(F)F)ccn2)nc(-c2cn(CC3(O)CCOCC3)nn2)c1 result="25.6 nM"
molecule="Cc1cc(Nc2cc(C(C)O)ccn2)nc(-c2cn(C(C)c3ccc(C(=O)O)cc3)nn2)c1 (stereo not drawn)" result="21.1 nM"

----------
- Study system: recombinant human GST-Syk (Homo sapiens, UniProt P43405)
- Construct: purchased Carna Biosciences 08-176
- Experimental details: Homogeneous Time-Resolved Fluorescence (HTRF) assay for the recombinant human Syk enzyme
- Assay type: biochemical
- Protocol conditions: recombinant human GST-Syk 5 pM, ATP 25 μM, 10-dose titration 10 μM to 0.508 nM; read-out: rhSYK Activity IC50
Rule for this label: satisfied means IC50 is less than 10 nM; not satisfied means IC50 is at least 10 nM.

compound="Cc1cc(Nc2cc(C(F)(F)F)ccn2)nc(-c2cn(C[C@@H](O)C(N)=O)nn2)c1 [Example 1.14]" classification=satisfied
compound="Cc1cc(Nc2nccc(C(F)F)n2)cc(-c2cn(C3CCCCC3(C)O)nn2)c1 (single isomer, unassigned) [Example 7.19]" classification="not satisfied"
compound="Cc1cc(Nc2cc(C(F)(F)F)ccn2)nc(-c2cn(C[C@@H](O)C(=O)O)nn2)c1 [Example 4.20]" classification="not satisfied"
compound="Cc1cc(Nc2nccc(C(F)(F)F)n2)cc(-c2cn(CC(C)(O)C(C)(C)O)nn2)c1 (stereo not shown) [Example 21.28]" classification="not satisfied"
compound="Cc1cc(Nc2ncc(F)c(C(F)F)n2)cc(-c2cn(Cc3ccc(O)nc3)nn2)c1 [Example 32]" classification=satisfied
compound="Cc1cc(Nc2cc(C(F)(F)F)ccn2)nc(-c2cn(C3CCC(C(N)=O)C(C)(C)C3)nn2)c1 (single isomer, unassigned) [Example 1.8]" classification=satisfied
compound="Cc1ccnc(Nc2cc(C)cc(-c3cn(CCO)nn3)n2)c1 [Example 5.18]" classification="not satisfied"
compound="Cc1cc(Nc2nccc(C(F)(F)F)n2)cc(-n2cc([C@]3(O)CC[C@H](C(=O)OC(C)(C)C)CC3)nn2)c1 [Example 15.5]" classification="not satisfied"
compound="Cc1cc(Nc2nccc(OC(C)C)n2)cc(-c2cn(CC(C)(O)C(C)(C)O)nn2)c1 (stereo not shown) [Example 21.13]" classification="not satisfied"
compound="Cc1cc(Nc2cc(C(F)(F)F)ccn2)nc(-c2cn(C(C)C(=O)NCCc3cccc4ccccc34)nn2)c1 (stereo not shown) [Example 1.44]" classification="not satisfied"
compound="Cc1cc(Nc2cc(C(F)(F)F)ccn2)nc(-c2cn(C(C)C(N)=O)nn2)c1 (stereo not shown) [Example 1.25]" classification=satisfied
compound="Cc1cc(Nc2cc(C(F)(F)F)ccn2)nc(-c2cn(C(C)C(=O)NCCc3ccc(Oc4ccccc4)cc3)nn2)c1 (stereo not shown) [Example 1.46]" classification="not satisfied"
compound="Cc1cc(Nc2ncc(F)c(C(F)F)n2)cc(-c2cn(C3CCCCC3O)nn2)c1 (single isomer, unassigned) [Example 7.29]" classification="not satisfied"
compound="Cc1cc(Nc2cc(C(F)(F)F)ccn2)nc(-c2cn(C(C)CO)nn2)c1 (stereo not shown) [Example 18.1]" classification=satisfied
compound="CCC(CO)n1cc(-c2cc(C)cc(Nc3cc(C(F)(F)F)ccn3)n2)nn1 (stereo not shown) [Example 13.9]" classification=satisfied
compound="Cc1cc(Nc2nccc(C(F)(F)F)n2)cc(-n2cc(C3(O)CCC(O)CC3)nn2)c1 (stereo not shown) [Example 15.16]" classification="not satisfied"
compound="Cc1cc(Nc2cc(C(F)(F)F)ccn2)nc(-c2cn(C3CN(C(=O)CCC(N)=O)CC3O)nn2)c1 (stereo not shown) [Example 13.5]" classification="not satisfied"
compound="Cc1cc(Nc2cc(C(F)(F)F)ccn2)nc(-c2cn(CC3CNC(=O)O3)nn2)c1 (racemic) [Example 5.84]" classification=satisfied
compound="Cc1cc(Nc2nccc(C(F)(F)F)n2)cc(-c2cn(CC(=O)N3COCC3(C)C)nn2)c1 [Example 5.68]" classification="not satisfied"
compound="Cc1cc(Nc2cc(C(F)F)ccn2)nc(-c2cn(CC(C)(O)CC#N)nn2)c1 (single isomer, unassigned) [Example 23.1]" classification=satisfied
compound="Cc1cc(Nc2nccc(C)n2)cc(-c2cn(C3CCCCC3O)nn2)c1 (single isomer, unassigned) [Example 7.22]" classification="not satisfied"
compound="Cc1cc(Nc2cc(C(F)(F)F)ccn2)nc(-c2cn(CC(O)C(C)(C)O)nn2)c1 (stereo not shown) [Example 10.12]" classification="not satisfied"
compound="Cc1cc(Nc2nccc(C(F)F)n2)cc(-c2cn(C3CCCC(O)C3O)nn2)c1 (single isomer, unassigned) [Example 25.1]" classification=satisfied
compound="CCOC(=O)/C=C/Cn1cc(-c2cc(C)cc(Nc3cc(C(F)(F)F)ccn3)n2)nn1 [Example 5.34]" classification="not satisfied"
compound="Cc1cc(Nc2cc(C(F)(F)F)ccn2)nc(-c2cn([C@@H](C)C(=O)O)nn2)c1 [Example 5.30]" classification="not satisfied"

Origin of the recorded values: patent US9586931B2
